Quick reference for AUC(0-t) among some compounds
- experimental_protocol: Pharmacokinetic study in rats after oral administration of SYD extract and its single and combined TCM extracts (UPLC-MS/MS of plasma)
- condition_context: male, Sprague-Dawley, rat, plasma, po, 2.15 g/kg, AUC(0–t), rat plasma, oral LJ extract 2.15 g/kg, n = 6
measurement_label: AUC(0-t) (ng·h/mL)

[[record]]
mol_smiles = "O=C(/C=C/c1ccc(O)c(O)c1)O[C@@H]1C[C@](O)(C(=O)O)C[C@@H](O)[C@H]1O"
readout_unit = "ng·h/mL"
recorded_value = 3940

[[record]]
mol_smiles = "COC(=O)C1=CO[C@@H](O[C@@H]2O[C@H](CO)[C@@H](O)[C@H](O)[C@H]2O)[C@@H]2[C@@H](C)[C@@H](O)C[C@H]12"
readout_unit = "ng·h/mL"
recorded_value = 1520


###

- experimental_protocol: Pharmacokinetic study in rats after oral administration of SYD extract and its single and combined TCM extracts (UPLC-MS/MS of plasma)
- condition_context: male, Sprague-Dawley, rat, plasma, po, 8.25 g/kg, Tmax, rat plasma, oral SYD extract 8.25 g/kg, n = 6
measurement_label: Tmax

[[record]]
molecule = "C[C@]1(OC(=O)/C=C/c2ccccc2)C[C@@H](O)[C@]2(O)C=CO[C@@H](O[C@@H]3O[C@H](CO)[C@@H](O)[C@H](O)[C@H]3O)[C@@H]21 [Harpagoside, harpagoside]"
recorded_value = "1.5 h"

[[record]]
molecule = "COc1ccc(CCO[C@@H]2O[C@H](CO[C@@H]3OC[C@H](O)[C@H](O)[C@H]3O)[C@@H](OC(=O)/C=C/c3ccc(O)c(OC)c3)[C@H](O[C@@H]3O[C@@H](C)[C@H](O)[C@@H](O)[C@H]3O)[C@H]2O)cc1O [Angoroside C, angoroside C]"
recorded_value = "1.38 h"

[[record]]
molecule = "O=C1C[C@@H](c2ccc(O[C@@H]3O[C@H](CO)[C@@H](O)[C@H](O)[C@H]3O)cc2)Oc2cc(O)ccc21 [Liquiritin, liquiritin]"
recorded_value = "0.88 h"


###

- experimental_protocol: Pharmacokinetic study in rats after oral administration of SYD extract and its single and combined TCM extracts (UPLC-MS/MS of plasma)
- condition_context: male, Sprague-Dawley, rat, plasma, po, 2.49 g/kg, AUC(0–∞), rat plasma, oral SN extract 2.49 g/kg, n = 6
measurement_label: AUC(0-inf) (ng·h/mL)

[[record]]
compound = "C[C@]1(OC(=O)/C=C/c2ccccc2)C[C@@H](O)[C@]2(O)C=CO[C@@H](O[C@@H]3O[C@H](CO)[C@@H](O)[C@H](O)[C@H]3O)[C@@H]21 [Harpagoside, harpagoside]"
measurement_label = "AUC(0-inf)"
recorded_value = 320

[[record]]
compound = "COc1ccc(CCO[C@@H]2O[C@H](CO[C@@H]3OC[C@H](O)[C@H](O)[C@H]3O)[C@@H](OC(=O)/C=C/c3ccc(O)c(OC)c3)[C@H](O[C@@H]3O[C@@H](C)[C@H](O)[C@@H](O)[C@H]3O)[C@H]2O)cc1O [Angoroside C, angoroside C]"
measurement_label = "AUC(0-inf)"
recorded_value = 110


###

- experimental_protocol: Pharmacokinetic study in rats after oral administration of SYD extract and its single and combined TCM extracts (UPLC-MS/MS of plasma)
- condition_context: male, Sprague-Dawley, rat, plasma, po, 2.15 g/kg, MRT(0–t), rat plasma, oral LJ extract 2.15 g/kg, n = 6
Quick reference for MRT last among some compounds
measurement_label: MRT last (h)

[[record]]
compound = "COC(=O)C1=CO[C@@H](O[C@@H]2O[C@H](CO)[C@@H](O)[C@H](O)[C@H]2O)[C@@H]2[C@@H](C)[C@@H](O)C[C@H]12 [Loganin, loganin]"
measurement_label = "MRT last"
readout_unit = "h"
recorded_value = 3.65

[[record]]
compound = "O=C(/C=C/c1ccc(O)c(O)c1)O[C@@H]1C[C@](O)(C(=O)O)C[C@@H](O)[C@H]1O [Chlorogenic acid, chlorogenic acid]"
measurement_label = "MRT last"
readout_unit = "h"
recorded_value = 3.12


###

- experimental_protocol: Pharmacokinetic study in rats after oral administration of SYD extract and its single and combined TCM extracts (UPLC-MS/MS of plasma)
- condition_context: male, Sprague-Dawley, rat, plasma, po, 5.43 g/kg, Cmax, rat plasma, oral LJ + SN + AS extract 5.43 g/kg, n = 6
Quick reference for Cmax among some molecules
measurement_label: Cmax (ng/mL)

[[record]]
molecule = "COC(=O)C1=CO[C@@H](O[C@@H]2O[C@H](CO)[C@@H](O)[C@H](O)[C@H]2O)[C@@H]2[C@@H](C)[C@@H](O)C[C@H]12"
recorded_value = 660

[[record]]
molecule = "O=C(/C=C/c1ccc(O)c(O)c1)O[C@@H]1C[C@](O)(C(=O)O)C[C@@H](O)[C@H]1O"
recorded_value = 1380

[[record]]
molecule = "COc1ccc(CCO[C@@H]2O[C@H](CO[C@@H]3OC[C@H](O)[C@H](O)[C@H]3O)[C@@H](OC(=O)/C=C/c3ccc(O)c(OC)c3)[C@H](O[C@@H]3O[C@@H](C)[C@H](O)[C@@H](O)[C@H]3O)[C@H]2O)cc1O [Angoroside C, angoroside C]"
recorded_value = 140

[[record]]
molecule = "C[C@]1(OC(=O)/C=C/c2ccccc2)C[C@@H](O)[C@]2(O)C=CO[C@@H](O[C@@H]3O[C@H](CO)[C@@H](O)[C@H](O)[C@H]3O)[C@@H]21 [Harpagoside, harpagoside]"
recorded_value = 50


###

- experimental_protocol: Pharmacokinetic study in rats after oral administration of SYD extract and its single and combined TCM extracts (UPLC-MS/MS of plasma)
- condition_context: male, Sprague-Dawley, rat, plasma, po, 5.43 g/kg, t1/2, rat plasma, oral LJ + SN + AS extract 5.43 g/kg, n = 6
measurement_label: half-life (h)

[[record]]
compound = "C[C@]1(OC(=O)/C=C/c2ccccc2)C[C@@H](O)[C@]2(O)C=CO[C@@H](O[C@@H]3O[C@H](CO)[C@@H](O)[C@H](O)[C@H]3O)[C@@H]21 [Harpagoside, harpagoside]"
measurement_label = "half-life"
recorded_value = 9.79

[[record]]
compound = "O=C(/C=C/c1ccc(O)c(O)c1)O[C@@H]1C[C@](O)(C(=O)O)C[C@@H](O)[C@H]1O [Chlorogenic acid, chlorogenic acid]"
measurement_label = "half-life"
recorded_value = 6.73

[[record]]
compound = "COc1ccc(CCO[C@@H]2O[C@H](CO[C@@H]3OC[C@H](O)[C@H](O)[C@H]3O)[C@@H](OC(=O)/C=C/c3ccc(O)c(OC)c3)[C@H](O[C@@H]3O[C@@H](C)[C@H](O)[C@@H](O)[C@H]3O)[C@H]2O)cc1O [Angoroside C, angoroside C]"
measurement_label = "half-life"
recorded_value = 11.8

[[record]]
compound = "COC(=O)C1=CO[C@@H](O[C@@H]2O[C@H](CO)[C@@H](O)[C@H](O)[C@H]2O)[C@@H]2[C@@H](C)[C@@H](O)C[C@H]12 [Loganin, loganin]"
measurement_label = "half-life"
recorded_value = 6.25


###

- experimental_protocol: Pharmacokinetic study in rats after oral administration of SYD extract and its single and combined TCM extracts (UPLC-MS/MS of plasma)
- condition_context: male, Sprague-Dawley, rat, plasma, po, […], t1/2, rat plasma, oral SN + AS + GU extract […], n = 6
Quick reference for half-life among some compounds
measurement_label: half-life (h)

[[record]]
compound = "C[C@]1(OC(=O)/C=C/c2ccccc2)C[C@@H](O)[C@]2(O)C=CO[C@@H](O[C@@H]3O[C@H](CO)[C@@H](O)[C@H](O)[C@H]3O)[C@@H]21 [Harpagoside, harpagoside]"
readout_unit = "h"
recorded_value = 15.5

[[record]]
compound = "O=C(/C=C/c1ccc(O)c(O)c1)O[C@@H]1C[C@](O)(C(=O)O)C[C@@H](O)[C@H]1O"
readout_unit = "h"
recorded_value = 7.95

[[record]]
compound = "O=C1C[C@@H](c2ccc(O[C@@H]3O[C@H](CO)[C@@H](O)[C@H](O)[C@H]3O)cc2)Oc2cc(O)ccc21"
readout_unit = "h"
recorded_value = 11.6

[[record]]
compound = "COc1ccc(CCO[C@@H]2O[C@H](CO[C@@H]3OC[C@H](O)[C@H](O)[C@H]3O)[C@@H](OC(=O)/C=C/c3ccc(O)c(OC)c3)[C@H](O[C@@H]3O[C@@H](C)[C@H](O)[C@@H](O)[C@H]3O)[C@H]2O)cc1O [Angoroside C, angoroside C]"
readout_unit = "h"
recorded_value = 11.6


###

- experimental_protocol: Pharmacokinetic study in rats after oral administration of SYD extract and its single and combined TCM extracts (UPLC-MS/MS of plasma)
- condition_context: male, Sprague-Dawley, rat, plasma, po, 4.73 g/kg, MRT(0–∞), rat plasma, oral LJ + SN + GU extract 4.73 g/kg, n = 6
Param threshold (70 h) applies to MRT inf; output fulfilled when value >= threshold, not fulfilled when value < threshold.

[[record]]
compound = "COc1ccc(CCO[C@@H]2O[C@H](CO[C@@H]3OC[C@H](O)[C@H](O)[C@H]3O)[C@@H](OC(=O)/C=C/c3ccc(O)c(OC)c3)[C@H](O[C@@H]3O[C@@H](C)[C@H](O)[C@@H](O)[C@H]3O)[C@H]2O)cc1O [Angoroside C, angoroside C]"
discrete_label = "not fulfilled"

[[record]]
compound = "O=C1C[C@@H](c2ccc(O[C@@H]3O[C@H](CO)[C@@H](O)[C@H](O)[C@H]3O)cc2)Oc2cc(O)ccc21 [Liquiritin, liquiritin]"
discrete_label = "not fulfilled"

[[record]]
compound = "COC(=O)C1=CO[C@@H](O[C@@H]2O[C@H](CO)[C@@H](O)[C@H](O)[C@H]2O)[C@@H]2[C@@H](C)[C@@H](O)C[C@H]12 [Loganin, loganin]"
discrete_label = "fulfilled"

[[record]]
compound = "C[C@]1(OC(=O)/C=C/c2ccccc2)C[C@@H](O)[C@]2(O)C=CO[C@@H](O[C@@H]3O[C@H](CO)[C@@H](O)[C@H](O)[C@H]3O)[C@@H]21 [Harpagoside, harpagoside]"
discrete_label = "not fulfilled"

